test: Pharmacokinetic evaluation of 2-BHA of form A in rats by intragastric administration; type: in vivo, SD rats; conditions: both sexes, SD, rat, plasma, oral, 100 mg/kg, 100 mg/kg intragastric, 1 h, individual rats 1♂-6♀;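 also: plasma concentration in ng/mL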
property: concentration at 1 h

- compound: "COc1ccc(O)c(C(C)(C)C)c1 [2-BHA of form A, 2-tert-butyl-4-methoxyphenol]"
  result: "881 ng/mL"

---

test: Drug metabolism experiments (in vivo half-life)
property: half-life

- molecule: "COc1ccc(O)c(C(C)(C)C)c1 [BHA, 2-tert-butyl-4-methoxyphenol]"
  property: "half-life"
  result: "30 to 60 min"
